# Test Target: human orexin 2 receptor (Homo sapiens (Human), UniProt O43614)
# Sequence (O43614 whole entry): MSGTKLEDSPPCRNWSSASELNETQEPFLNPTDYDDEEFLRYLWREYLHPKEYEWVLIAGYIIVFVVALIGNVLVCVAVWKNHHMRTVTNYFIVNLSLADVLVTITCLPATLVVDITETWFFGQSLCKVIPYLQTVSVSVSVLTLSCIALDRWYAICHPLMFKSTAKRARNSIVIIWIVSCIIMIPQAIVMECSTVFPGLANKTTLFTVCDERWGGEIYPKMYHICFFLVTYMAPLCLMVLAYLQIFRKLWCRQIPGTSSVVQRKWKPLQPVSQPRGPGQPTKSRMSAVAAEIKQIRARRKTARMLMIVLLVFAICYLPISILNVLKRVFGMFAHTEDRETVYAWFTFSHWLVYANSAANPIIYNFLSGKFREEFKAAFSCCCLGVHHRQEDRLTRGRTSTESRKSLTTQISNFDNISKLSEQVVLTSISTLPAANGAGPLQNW
# Method Summary: Human orexin 2 receptor radioligand binding ([3H]-EMPA)
# Study Conditions: HEK293 stably expressing human orexin 2 receptor; [3H]-EMPA; apparent Ki; read-out: hOX2 Ki
# Procedure: After centrifugation (2K×G, 5 min at 4° C.), the supernatant was aspirated and the pellets frozen and stored at −80° C. […] Total and nonspecific binding was determined in the absence and presence of 10 M almorexant. […] The plates were washed 3 times by aspirating 30 ml PBS through the plates. Plates were dried in 55° C. oven for 60 min, scintillation fluid was added, and the radioactivity was counted on a Topcount (Packard).
Where a name gives a salt, the structure may show the parent alone.

{"columns": ["Molecule", "Unit Abbrev", "Reading Qualifier", "Ki"],
 "data": [
  ["C[C@@H]1[C@H](Nc2nccc(-c3ccccc3)n2)CCCN1C(=O)c1ccccc1-n1nccn1 (racemic) [Example 66]", "nM", "=", 1800],
  ["Cc1ccc(C(=O)N2CCC[C@@H](Nc3ccc(C(F)(F)F)cn3)[C@@H]2C)c(-n2nccn2)n1 [Example 98]", "nM", ">", 10000],
  ["Cc1ccc(-c2ncccn2)c(C(=O)N2CCC[C@@H](Nc3nc4ccccc4o3)[C@@H]2C)n1 [Example 81]", "nM", "=", 100],
  ["COc1c(F)cccc1C(=O)N1CCC[C@@H](Nc2cnc3ccccc3n2)[C@@H]1C (racemic) [Example 50]", "nM", "=", 353],
  ["C[C@H]1[C@H](Nc2ccc(C(F)(F)F)nn2)CCCN1C(=O)c1ccccc1-n1nccn1 (racemic) [Example 33, hydrochloride]", "nM", "=", 4800],
  ["Cc1ccc(C(=O)N2CCC[C@@H](Nc3ccc(C(F)(F)F)cn3)[C@@H]2C)c(-n2nccn2)c1 [Example 14]", "nM", "=", 681],
  ["C[C@H]1[C@H](Nc2ccc(Cl)cn2)CCCN1C(=O)c1ccccc1-n1nccn1 (racemic) [Example 32]", "nM", "=", 286],
  ["Cc1ccc(C(=O)N2CCC[C@@H](Nc3ncc(C(F)(F)F)cn3)[C@@H]2C)c(-n2nccn2)c1 [Example 71]", "nM", "=", 1500],
  ["C[C@H]1[C@H](Nc2ccc(C(F)(F)F)cn2)CCCN1C(=O)c1ncccc1-n1nccn1 (racemic) [Example 21]", "nM", "=", 595],
  ["COc1c(F)cccc1C(=O)N1CCC[C@@H](Nc2ccc(C(F)(F)F)cn2)[C@@H]1C (racemic) [Example 28]", "nM", "=", 3900],
  ["C[C@@H]1[C@H](Nc2cnc3ccccc3n2)CCCN1C(=O)c1ccccc1-n1nccn1 (racemic) [Example 63]", "nM", ">", 10000],
  ["COc1c(F)cccc1C(=O)N1CCC[C@@H](Nc2nccc(-c3ccccc3)n2)[C@H]1C (racemic) [Example 67]", "nM", ">", 10000],
  ["Cc1ccc(-c2ncccn2)c(C(=O)N2CCC[C@@H](Nc3cc(C)nc(C(F)(F)F)n3)[C@@H]2C)c1 (racemic) [Example 7]", "nM", "=", 228],
  ["Cc1ccc(C(=O)N2CCC[C@H](Nc3ccc(C(F)(F)F)cn3)[C@H]2C)c(-n2nccn2)c1 [Example 15]", "nM", ">", 10000],
  ["Cc1cnc(C(=O)N2CCC[C@@H](Nc3cnc(Cl)cn3)[C@@H]2C)c(-c2ncco2)c1 [Example 86]", "nM", ">", 10000],
  ["Cc1ccc(C(=O)N2CCC[C@@H](Nc3ncc(C(F)(F)F)cn3)[C@@H]2C)c(-n2ccnn2)n1 [Example 70]", "nM", "=", 7500],
  ["Cc1cnc(C(=O)N2CCC[C@@H](Nc3cnc(C(F)(F)F)cn3)[C@@H]2C)c(-n2nccn2)c1 [Example 72]", "nM", "=", 4020],
  ["Cc1ccc(C(=O)N2CCC[C@@H](Nc3ccc(C(F)(F)F)cn3)[C@@H]2C)c(-n2ccnn2)n1 [Example 93]", "nM", "=", 2700],
  ["CCOc1ccccc1C(=O)N1CCC[C@@H](Nc2ccc(Br)cn2)[C@@H]1C (racemic) [Example 44]", "nM", "=", 1600],
  ["CCOc1ccc(C)nc1C(=O)N1CCC[C@@H](Nc2ccc(C(F)(F)F)cn2)[C@@H]1C (racemic) [Example 16]", "nM", "=", 680],
  ["Cc1cc(C)nc(N[C@@H]2CCCN(C(=O)c3cc(F)ccc3-n3nccn3)[C@H]2C)n1 (racemic) [Example 5]", "nM", "=", 116]
]}
